Source of measurements: ChEMBL document CHEMBL1134659

# Tested on: MDA-MB-231
# assay.remarks: In vitro inhibition of [3H]spermidine uptake in MDA-MB-231 (Human breast cancer) cells.
# Assay type: functional, cell-based
property.name: pKi
// pKi here means minus log10 of the molar concentration (mol/L)

>>> df
                                   compound  property_name  recorded_result
0              C[C@H](N)C(=O)NCCCNCCCCNCCCN            pKi             6.84
1  CCC(C)[C@H](N)C(=O)NCCCNCCCCNCCCN (stereo partly drawn)            pKi             6.82

pKi for NCCCNCCCCNCCCNC(=O)[C@@H](N)CCC(N)=O is 6.75

====

# Test system: MDA-MB-231
# assay.remarks: In vitro inhibition of [3H]spermidine uptake in MDA-MB-231 (Human breast cancer) cells.
# Assay type: functional, cell-based
Entries whose Ki is below 60 nM take Met; entries at or above 60 nM take Not met.

>>> print(df.to_string())
                                item_smiles  system_tested  class_label
0           CSCC[C@H](N)C(=O)NCCCNCCCCNCCCN     MDA-MB-231      Not met
1  NCCCNCCCCNCCCNC(=O)[C@@H](N)Cc1ccc(O)cc1     MDA-MB-231      Not met
2     NCCCNCCCCNCCCNC(=O)[C@@H](N)CC1CCCCC1     MDA-MB-231      Not met
3         CC(C)[C@@H](N)C(=O)NCCCNCCCCNCCCN     MDA-MB-231          Met
4         CC(C)C[C@H](N)C(=O)NCCCNCCCCNCCCN     MDA-MB-231          Met

Lab note: next compound to report on.
Record NCCCNCCCCNCCCNC(=O)CN : is its Ki strictly below 60 nM?
Not met

====

# Test system: MDA-MB-231
# assay.remarks: In vitro inhibition of [3H]spermidine uptake in MDA-MB-231 (Human breast cancer) cells.
# Format: functional, cell-based
property.name: Ki
Report field: quantity (unit follows the number).

Worked examples, 6 compounds total:
>>> print(df.to_string())
                             item_smiles  property_name  recorded_result
0                 NCCCNCCCCNCCCNC(=O)CCN             Ki            65 nM
1         NCCCNCCCCNCCCNC(=O)[C@@H](N)CO             Ki            55 nM
2       CC(C)[C@H](N)C(=O)NCCCNCCCCNCCCN             Ki            84 nM
3  NCCCNCCCCNCCCNC(=O)[C@@H](N)Cc1ccccc1             Ki           443 nM
4            CC(C)(N)C(=O)NCCCNCCCCNCCCN             Ki           191 nM
5    NCCCNCCCCNCCCNC(=O)[C@@H](N)CC(N)=O             Ki            95 nM

Record NCCCNCCCCNCCCNC(=O)[C@H](N)Cc1c[nH]c2ccccc12 has MDA-MB-231 Ki equal to 63 nM

Test item CC(C)(C)[C@H](N)C(=O)NCCCNCCCCNCCCN ; MDA-MB-231; reported Ki was 127 nM

# Ki measured on MDA-MB-231 for item NCCCNCCCCNCCCNC(=O)[C@@H](N)Cc1c[nH]c2ccccc12 = 119 nM

Entry NCCCNCCCCNCCCNC(=O)[C@@H]1CCCN1 ; assay system MDA-MB-231; Ki recorded at 38 nM

Ki of NCCCNCCCCNCCCNC(=O)[C@@H](N)CCCN , assay on MDA-MB-231, is 47 nM

// compound C[C@H](O)[C@H](N)C(=O)NCCCNCCCCNCCCN , assay MDA-MB-231, Ki value: 213 nM

====

# Tested on: MDA-MB-231
# assay.remarks: Inhibition of [3H]spermidine transport into MDA-MB-231 (human breast cancer) cells.
# Assay type: functional, cell-based
Just so you know, the groups by Ki go like this: lower band: < 200 nM; central band: ≥ 200 nM and < 300 nM; upper band: ≥ 300 nM

>>> df
                                   compound  system_tested   class_label
0                            NCCCNCCCCNCCCN     MDA-MB-231  central band
1  N=C(N)NCCCCCCC(=O)NC(O)C(=O)NCCCCNCCCN (stereo unspecified)     MDA-MB-231    lower band
2   NCCCNCCCCNCCCNC(=O)C12CC3CC(CC(C3)C1)C2     MDA-MB-231    upper band
3                                    NCCCCN     MDA-MB-231    upper band
4  NCCCNCCCCNCCCNC(=O)CC12CC3CC(CC(C3)C1)C2     MDA-MB-231  central band
5                       CC(=O)NCCCNCCCNCCCN     MDA-MB-231    upper band

The entry to classify is NCCCNCCCCNCCC(=O)NCCCCCNC(=O)[C@H](CC(N)=O)NC(=O)Cc1ccc(O)cc1O ; which class holds it?
lower band

Form: Item = NCCCNCCCCNCCCNC(=O)Cc1cccc2ccccc12 ; Class = ?
lower band

====

Collected Ki values appear next to each entry.
# Tested on: MDA-MB-231
# assay.remarks: Inhibition of [3H]spermidine transport into MDA-MB-231 (human breast cancer) cells.
# Assay type: functional, cell-based
Express the result in µM but write the number alone.

Known Ki results, listed for orientation:
>>> print(df.to_string())
                item_smiles  recorded_result
0  CCCCCC(=O)NCCCNCCCCNCCCN            0.284
1                NCCCCNCCCN            0.113

Now for a further compound.
Per the record, CC(C)(C)OC(=O)NCCCNCCCCNCCCN has Ki of 0.086
